Experiment: PK parameters, IP dosing (plasma and brain exposure)
Assay type: in vivo
Design: concentration or dose not given beside the values
Conditions: Mouse IP, plasma; read-out: AUC(last) Plasma
Readings of AUC(0-t) for the listed compounds
property-label: AUC(0-t)

{"entry-smiles": "Nc1ccc(-c2ccoc2)cc1NC(=O)c1ncc(N2CCNCC2)cn1", "obs-value": "3200 to 3300 ng·h/mL"}
{"entry-smiles": "Nc1ccc(-c2cccs2)cc1NC(=O)c1ccc(NC2CCN(C(=O)N3CCNCC3)CC2)cn1", "obs-value": "7400 to 7500 ng·h/mL"}
{"entry-smiles": "CN1CCN(c2cnc(C(=O)Nc3cc(-c4cccs4)ccc3N)nc2)CC1", "obs-value": "800 to 900 ng·h/mL"}
